Reference for the values: ChEMBL document CHEMBL4715749

Consider the following compounds; for each one, report its inhibition at 24 h, 50 µM.
Test: Cytotoxicity against Wistar rat PBMC assessed as inhibition of cell growth at 50 uM incubated for 24 hrs by sulforhodamine B assay relative to control
Format: tissue-based
Settings: Wistar, peripheral blood mononuclear cells (PBMC)
The reply should be a number in %, with the unit left off.

// inhibition at 24 h, 50 µM lookup, key: C[C@]12CC[C@H]3[C@@H](CCC4=CC(=O)CC[C@@]43C)[C@@H]1CC[C@@H]2C(=O)Nc1ccc(F)cc1
4.1

// inhibition at 24 h, 50 µM lookup, key: Cc1ccc(NC(=O)[C@H]2CC[C@H]3[C@@H]4CCC5=CC(=O)CC[C@]5(C)[C@H]4CC[C@]23C)cc1
13

// inhibition at 24 h, 50 µM lookup, key: C[C@]12CC[C@H]3[C@@H](CCC4=CC(=O)CC[C@@]43C)[C@@H]1CC[C@@H]2C(=O)Nc1ccccc1
8.7

// inhibition at 24 h, 50 µM lookup, key: C[C@]12CC[C@H]3[C@@H](CCC4=CC(=O)CC[C@@]43C)[C@@H]1CC[C@@H]2C(=O)Nc1nccs1
16.8

// inhibition at 24 h, 50 µM lookup, key: CC(C)(C)NC(=O)[C@H]1CC[C@H]2[C@@H]3CC[C@H]4NC(=O)C=C[C@]4(C)[C@H]3CC[C@]12C [FINASTERIDE]
3.7

// inhibition at 24 h, 50 µM lookup, key: C[C@]12CC[C@H]3[C@@H](CCC4=CC(=O)CC[C@@]43C)[C@@H]1CC[C@@H]2C(=O)Nc1cc(C(F)(F)F)cc(C(F)(F)F)c1
9.1

// inhibition at 24 h, 50 µM lookup, key: COc1ccc(NC(=O)[C@H]2CC[C@H]3[C@@H]4CCC5=CC(=O)CC[C@]5(C)[C@H]4CC[C@]23C)cc1
7.9
